# Tested on: Primary mouse hippocampal neurons
# protocolNotes: Excitotoxic (glutamate/NMDA-induced) cell death in primary neuronal cultures, protection index
# Type: cell-based
# experimentalConditions: third subset; A++++ or above correlates with IC50; A++ and A+++ as defined in the source
Structures can show the parent of a compound that is named as a salt.
testReadout: Biological Activity Rating

> print(dat)
                                   molecule                         testsystem                 testreadout  endpointvalue
1  CC(c1scc(C#N)c1F)N(CCN)C1CC1 (stereo not shown) [Compound 297, TFA salt]  Primary mouse hippocampal neurons  Biological Activity Rating           A+++
2  CC(c1c(Cl)ccc(Cl)c1F)N(CCN)C1CC1 (stereo not shown) [Compound 242]  Primary mouse hippocampal neurons  Biological Activity Rating           A+++
3  CC(c1c(F)ccc(Cl)c1F)N(CCN)C1CC1.Cl (stereo not shown) [Compound 187]  Primary mouse hippocampal neurons  Biological Activity Rating            A++
4  N#Cc1cccc(CN(CCN)C2CC2)c1F [Compound 219, hydrochloride]  Primary mouse hippocampal neurons  Biological Activity Rating           A+++
